- Tested on: K562 cells transfected with pMIG/BCR-ABL1p210
- assay.notes: MTT cell proliferation assay, K562 cells transfected with pMIG/BCR-ABL1p210
- Format: cell-based, human
- assay.conditions: pMIG/BCR-ABL1p210 0.1 μg DNA; K562 cells; drug 48 h; read-out: IC50 (median-effect dose, MTT)
measured.parameter: IC50 (µM)
Field format: number, assumed µM, no unit text.

So for `Cc1cc(Nc2cc(N3CCN(C)CC3)nc(Sc3ccc(NC(=O)C4CC4)cc3)n2)n[nH]1` , the logged IC50 turned out to be 1.79
